System: NCI-H23
method_notes: NCI tumour cell line growth inhibition, 48 h
Calls of active or inactive are those of the source. Rule as the data show it: active = GI50 up to about 1.1 µM and inactive = higher.
Write down the outcome that applies. Available outcomes: class 1 for active, class 0 for inactive

Answered examples (2):
- CN(C)c1ccc2nc3c(C(=O)O)cc(O)c(O)c3[o+]c2c1: class 0
- CC(C)=NOC(=O)Nc1cccc2c1OCO2: class 0

Each compound tested received a call. Report the one for COc1c(O)c2ccccc2c2cc(O)ccc12 . class 0

Each compound tested received a call. Report the one for C/C(=N\O)c1ccc(Nc2nc3ccccc3c3occc23)cc1 . class 0

----------
Tested on: DMS-273
method_notes: NCI tumour cell line growth inhibition, 48 h
Calls of active or inactive are those of the source. Cut-off read from the data, not from the text of the source: active = GI50 up to about 1.1 µM and inactive = higher.
reported_property: GI50

Example entries and their recorded answers appear below.
• COC(=O)[C@@]12C=CC(=O)[C@H]3C[C@@H](C(C(C)C)C1)[C@]32OC (some centres not stated) = > 100 µM (inactive)
• COc1c(O)c2ccccc2c2cc(O)ccc12 = 6.65 µM (inactive)
• CC(=O)NNc1nc(C)c(C(=O)NNC(=O)C(=O)Nc2ccc([N+](=O)[O-])cc2C#N)s1 = > 100 µM (inactive)
• CC(=O)OCCOCNC(=S)N/N=C(\C)c1cnccn1 = 24.5 µM (inactive)
• NC(=O)COC(=O)c1c(Cl)nc2sccn12 = 81.7 µM (inactive)

Count: 2. Required value per item: GI50.
1. CCOC(OCC)C(CC)[Se]c1ccccc1 (configuration not stated)
2. COc1ccc(Br)c(N/N=C2\CCCNC2=O)c1

1. 14.1 µM (inactive)
2. > 100 µM (inactive)

Count: 2. Required value per item: GI50.
1. O=C1c2ccccc2N(O)C1(c1ccccc1)C1CCCC=C1N1CCOCC1 (configuration not stated)
2. COC(=O)[C@@]12C3=NO[C@]1(C(=O)OC)C(O[Si](C)(C)C(C)(C)C)[C@@H](OC(C)=O)[C@@H](OC(C)=O)[C@@H]2[C@@H](OCc1ccccc1)CC3 (some centres not stated)

> 100 µM (inactive)
6.05 µM (inactive)

Count: 6. Required value per item: GI50.
1. CN1N=CSC12C(=O)N(c1ccccc1)C(=O)N2c1ccccc1 (configuration not stated)
2. CCOC(=O)/C=C/n1c2ccccc2c(=O)c2ccccc21
3. COc1ccc(CCn2cncn2)cc1
4. CC(C)CCC[C@@H](C)C1CCC2[C@@H]3CC=C4C[C@@H](OC(=O)CCC(=O)NCC[N+](C)(C)CCCS(=O)(=O)[O-])CC[C@]4(C)C3CC[C@@]21C (some centres not stated)
5. O=C1c2cccc3cccc(c23)C(=O)N1CCCN1CCN(CCCN2C(=O)c3cccc4cccc(c34)C2=O)CC1
6. COC(=O)C(=Cc1cc(OC)ccc1OC)C(=O)OC

> 100 µM (inactive)
> 100 µM (inactive)
> 100 µM (inactive)
14.7 µM (inactive)
> 100 µM (inactive)
32.3 µM (inactive)

Count: 5. Required value per item: GI50.
1. COc1ccc(N(C)CN(C)c2nc(N(C)C)nc(N(C)C)n2)cc1
2. C=CCCN1CCc2c([nH]c3ccccc23)C1C(=O)O (configuration not stated)
3. CC(=O)OC1CC2Oc3ccc(C)cc3C(C)(O2)C1=O (configuration not stated)
4. CC(N)C(=O)OCN1C(=O)C2C3C=CC(C2C1=O)C1C2C(=O)N(COC(=O)C(C)N)C(=O)C2C31 (configuration not stated)
5. O=c1[nH]ccc(CNC23CC4CC(CC(C4)C2)C3)c1O

1: > 100 µM (inactive); 2: > 100 µM (inactive); 3: > 100 µM (inactive); 4: 18.5 µM (inactive); 5: > 100 µM (inactive)

Count: 2. Required value per item: GI50.
1. COC(=O)C1=C(C(=O)OC)C2(C)Nc3ccccc3C2=C(c2ccccc2)C1 (configuration not stated)
2. CCC1CN2CCc3cc(OC)c(OC)cc3C2CC1CC1c2cc(OC)c(OC)cc2CCN1C(=O)C1CCCN1 (configuration not stated)

["21.4 µM (inactive)", "35.3 µM (inactive)"]

----------
System: OVCAR-3
method_notes: NCI tumour cell line growth inhibition, 48 h
Active and inactive are the calls of the source. No stated cut-off is given here; in the data, active = GI50 up to about 1.1 µM and inactive = higher.
reported_property: GI50

Example entries and their recorded answers appear below.
* N=C1c2ccccc2C(=O)c2c(NCCNCCO)ccc(O)c21 | 12.9 µM (inactive)
* NC(=S)c1cccc(C2Nc3ccccc3O2)c1 (stereo unspecified) | > 100 µM (inactive)
* CC(=O)OC1CC2Oc3ccc(C)cc3C(C)(O2)C1=O (stereo unspecified) | > 100 µM (inactive)
* COc1c(O)c2ccccc2c2cc(O)ccc12 | 8.81 µM (inactive)
* C[C@]12Cc3cn[nH]c3C(=O)C1CC[C@@H]1C2CC[C@@]2(C)C1CC[C@@H]2O (stereo partly specified) | > 100 µM (inactive)
* O=c1[nH]c2cc(C(F)(F)F)ccc2nc1CBr | 9.77 µM (inactive)

Count: 5. Required value per item: GI50.
1. CCc1nnc(S)n1/N=C/c1ccc(-c2ccc([N+](=O)[O-])cc2)o1
2. [O-][S+]1SC(=S)C2C=CC=CC21 (stereo unspecified)
3. COC(=O)C(=Cc1cc(OC)ccc1OC)C(=O)OC
4. COc1ccc(N2C(=O)CSC2c2cc(OC)c(OC)c(OC)c2)cc1 (stereo unspecified)
5. COc1ccc(/C=C2\N/C(=N\N=C/C(O)C(O)C(O)C(O)CO)NC2=O)cc1 (stereo unspecified)

> 100 µM (inactive)
> 100 µM (inactive)
21.2 µM (inactive)
25.5 µM (inactive)
18.6 µM (inactive)

----------
Test system: NCI-H460
method_notes: NCI tumour cell line growth inhibition, 48 h
Calls of active or inactive are those of the source. Cut-off read from the data, not from the text of the source: active = GI50 up to about 1.1 µM and inactive = higher.
Write down the outcome that applies. Available outcomes: t (active), f (inactive)

* CC(C)(Oc1ccc(C(=O)c2ccc(Cl)cc2)cc1Cl)C(=O)N1CCN(c2ccccc2)CC1 | f

Each molecule tested received a call. Report the one for O=c1oc2ccccc2cc1/C=N/N1C(=S)N(c2ccccc2)C(=N\c2ccccc2)/C1=N/c1ccccc1 . f

Each molecule tested received a call. Report the one for N#Cc1c(N)nc2[nH]nc(N)c2c1-c1ccc(Cl)cc1 . f

Each molecule tested received a call. Report the one for O=C(/C=C/c1ccc(OCc2ccccc2)cc1)NCc1ccc(C(=O)NCc2ccccc2)cc1 . f

----------
System: Hs-578T
method_notes: NCI tumour cell line growth inhibition, 48 h
Active and inactive are the calls of the source. No stated cut-off is given here; in the data, active = GI50 up to about 1.1 µM and inactive = higher.
Exercise: for every item that follows, state its recorded GI50.

Example entries and their recorded answers appear below.
* O=P1(Oc2ccccc2)N=P(c2ccccc2)(c2ccccc2)C=C(c2ccc(Cl)cc2)N1 (stereo unspecified) | 16.7 µM (inactive)
* COc1c(O)c2ccccc2c2cc(O)ccc12 | 17.4 µM (inactive)
* O=C(c1ccccc1)c1ccc(N2C(=O)/C(=C/c3cccc(Oc4ccccc4)c3)N=C2c2ccccc2)c(N2C(=O)/C(=C/c3cccc(Oc4ccccc4)c3)N=C2c2ccccc2)c1 | 26.9 µM (inactive)
* CN(C)c1ccc(C2=C([O-])c3cc(-[n+]4ccccc4)ccc3C2=O)cc1 | > 100 µM (inactive)
* CC(=O)C1=C(C)O[C@@H]2O[C@H](COCc3ccccc3)[C@@H](OCc3ccccc3)[C@H](O)[C@@H]2S1 | 17.9 µM (inactive)

Count: 4. Required value per item: GI50.
1. Cn1c2ccc([N+](=O)[O-])cc2c(=O)n1Cc1ccccc1F
2. OCCCCCCOc1ccc(-c2cc(-c3ccccn3)nc(-c3ccccn3)c2)cc1
3. Nc1ncnc2c1ncn2[C@H]1C=C[C@@H](NO)C1
4. CCCC(=O)NC(C(=O)OCC)(N1CCOCC1)C(F)(F)F (stereo unspecified)

25.8 µM (inactive)
0.419 µM (active)
> 100 µM (inactive)
> 100 µM (inactive)

Count: 2. Required value per item: GI50.
1. Cn1c(=O)nc2n(-c3ccc(Cl)cc3)c3cc(Cl)ccc3nc-2c1=O
2. CCCCC1Cc2ccccc2-c2n1c1ccccc1[n+]2C (stereo unspecified)

["2.48 µM (inactive)", "12.1 µM (inactive)"]

Count: 6. Required value per item: GI50.
1. O=C(c1c(F)c(F)c(F)c(F)c1F)c1c(F)c(F)c(F)c(F)c1F
2. CC(=O)Nc1ccc(N2C(=O)/C(=C\c3cccc(Oc4ccccc4)c3)SC2c2ccccc2)cc1 (stereo unspecified)
3. CSc1nc(O)c(C#N)c(-c2ccc(Cl)cc2)n1
4. Cc1ccc(/C=C/C(=O)c2c([O-])on[n+]2-c2ccccc2)cc1
5. Nc1nc(O)c2nc(CNc3ccc(C(=O)NC(CCC(=O)O)C(=O)O)cc3)cnc2n1 (stereo unspecified)
6. CCOC(=O)CO/N=C\C1=CC(=O)C2CC1C2(C)C (stereo unspecified)

["2.69 µM (inactive)", "12.7 µM (inactive)", "64.9 µM (inactive)", "2.47 µM (inactive)", "> 100 µM (inactive)", "> 100 µM (inactive)"]
